molecular target: GluN2D-containing NMDA receptors (Homo sapiens); assay: Two-electrode voltage-clamp recordings from Xenopus laevis oocytes, GluN2D; conditions: Table 1; glutamate 100 μM, glycine 30 μM; Hill fit; read-out: EC50 Glu N2D
Sequence (O15399 28-1336, other chains not shown): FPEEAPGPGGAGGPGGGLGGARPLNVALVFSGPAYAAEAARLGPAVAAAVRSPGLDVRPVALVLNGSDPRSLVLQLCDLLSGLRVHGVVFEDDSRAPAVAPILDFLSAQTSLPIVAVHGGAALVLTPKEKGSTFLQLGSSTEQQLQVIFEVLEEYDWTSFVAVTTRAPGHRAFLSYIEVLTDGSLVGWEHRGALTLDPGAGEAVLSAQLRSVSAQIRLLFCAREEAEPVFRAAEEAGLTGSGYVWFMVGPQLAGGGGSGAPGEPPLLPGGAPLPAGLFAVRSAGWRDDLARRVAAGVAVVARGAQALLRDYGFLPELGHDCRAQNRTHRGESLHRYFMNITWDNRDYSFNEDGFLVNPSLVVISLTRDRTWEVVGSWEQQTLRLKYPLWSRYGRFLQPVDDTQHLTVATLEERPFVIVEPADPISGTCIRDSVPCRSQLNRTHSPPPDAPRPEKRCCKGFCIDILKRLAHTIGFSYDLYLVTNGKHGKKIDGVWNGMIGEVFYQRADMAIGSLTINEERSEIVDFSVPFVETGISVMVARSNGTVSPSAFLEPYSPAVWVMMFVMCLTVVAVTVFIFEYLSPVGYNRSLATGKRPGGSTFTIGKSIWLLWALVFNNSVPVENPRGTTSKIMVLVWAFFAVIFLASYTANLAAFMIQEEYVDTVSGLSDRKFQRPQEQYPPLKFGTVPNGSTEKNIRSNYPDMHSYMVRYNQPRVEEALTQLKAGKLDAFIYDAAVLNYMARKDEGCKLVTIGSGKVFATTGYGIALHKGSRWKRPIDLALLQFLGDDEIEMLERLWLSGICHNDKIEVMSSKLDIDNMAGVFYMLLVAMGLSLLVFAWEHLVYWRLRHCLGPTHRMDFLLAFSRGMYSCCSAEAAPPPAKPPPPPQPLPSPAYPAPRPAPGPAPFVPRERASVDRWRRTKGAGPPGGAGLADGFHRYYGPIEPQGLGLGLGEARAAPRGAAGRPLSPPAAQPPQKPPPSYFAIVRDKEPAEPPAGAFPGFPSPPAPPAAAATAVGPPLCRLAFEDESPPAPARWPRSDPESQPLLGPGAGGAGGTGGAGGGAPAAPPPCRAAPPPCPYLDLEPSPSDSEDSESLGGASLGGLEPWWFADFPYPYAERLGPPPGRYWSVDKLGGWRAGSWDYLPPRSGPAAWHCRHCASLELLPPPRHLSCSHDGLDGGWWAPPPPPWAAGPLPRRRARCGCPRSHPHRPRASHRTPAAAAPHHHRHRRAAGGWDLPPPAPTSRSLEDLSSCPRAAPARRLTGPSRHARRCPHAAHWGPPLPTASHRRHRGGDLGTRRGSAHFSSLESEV
pEC50: −log10 of the molar value.
Param threshold (4) applies to pEC50; output class 1 when value >= threshold, class 0 when value < threshold.

Example cases with answers are listed next.
- SMILES_INPUT: "Cc1sc2ncn(CC(=O)N3CCCC3)c(=O)c2c1-c1ccc(N=[N+]=[N-])cc1"
  ASSAY_TARGET: "GluN2D-containing NMDA receptors (Homo sapiens)"
  CLASS_ASSIGNMENT: "class 1"
- SMILES_INPUT: "CCOc1ccc(-c2c(C)sc3ncn(CC(=O)N4CCCC4)c(=O)c23)cc1"
  ASSAY_TARGET: "GluN2D-containing NMDA receptors (Homo sapiens)"
  CLASS_ASSIGNMENT: "class 1"
- SMILES_INPUT: "Cc1sc2ncn(CC(=O)N3CCCC3)c(=O)c2c1-c1cc(I)cc(I)c1"
  ASSAY_TARGET: "GluN2D-containing NMDA receptors (Homo sapiens)"
  CLASS_ASSIGNMENT: "class 1"
- SMILES_INPUT: "Cc1sc2ncn(CC(=O)N3CCCC3)c(=O)c2c1-c1cccc(Cl)c1"
  ASSAY_TARGET: "GluN2D-containing NMDA receptors (Homo sapiens)"
  CLASS_ASSIGNMENT: "class 1"
- SMILES_INPUT: "CCc1ccc(-c2csc3ncn(CC(=O)N4CCCC4)c(=O)c23)cc1"
  ASSAY_TARGET: "GluN2D-containing NMDA receptors (Homo sapiens)"
  CLASS_ASSIGNMENT: "class 1"
- SMILES_INPUT: "Cc1sc2ncn(CC(=O)N3CCCC3)c(=O)c2c1-c1ccc2c(c1)CCC2"
  ASSAY_TARGET: "GluN2D-containing NMDA receptors (Homo sapiens)"
  CLASS_ASSIGNMENT: "class 1"
- SMILES_INPUT: "Cc1sc2ncn(CC(=O)N3CCCC3)c(=O)c2c1-c1ccc(Cl)cc1"
  ASSAY_TARGET: "GluN2D-containing NMDA receptors (Homo sapiens)"
  CLASS_ASSIGNMENT: "class 1"
- SMILES_INPUT: "Cc1sc2ncn(CC(=O)N3CCCC3)c(=O)c2c1-c1cccc(Br)c1"
  ASSAY_TARGET: "GluN2D-containing NMDA receptors (Homo sapiens)"
  CLASS_ASSIGNMENT: "class 1"
- SMILES_INPUT: "Cc1sc2ncn(CC(=O)N3CCCC3)c(=O)c2c1-c1cc(Br)cc(Br)c1"
  ASSAY_TARGET: "GluN2D-containing NMDA receptors (Homo sapiens)"
  CLASS_ASSIGNMENT: "class 1"
- SMILES_INPUT: "Cc1sc2ncn(CC(=O)N3CCCC3)c(=O)c2c1-c1ccc(Br)c(Br)c1"
  ASSAY_TARGET: "GluN2D-containing NMDA receptors (Homo sapiens)"
  CLASS_ASSIGNMENT: "class 1"

Q) // inclusive: pEC50 at least 4? input: [N-]=[N+]=Nc1ccc(-c2csc3ncn(CC(=O)N4CCCC4)c(=O)c23)cc1
A) class 0

Q) Assess whether reported pEC50 for Cc1sc2ncn(CC(=O)N3CCCC3)c(=O)c2c1-c1ccccc1 sits at 4 or higher.
A) class 1

Q) Please check the record Cc1ccc(-c2csc3ncn(CC(=O)N4CCCC4)c(=O)c23)cc1 and state if its pEC50 is at or above 4.
A) class 0

Q) Does Cc1sc2ncn(CC(=O)N3CCCC3)c(=O)c2c1-c1cc(F)cc(F)c1 have a reported pEC50 of at least 4?
A) class 0

Q) Would you say Cc1ccc(-c2c(C)sc3ncn(CC(=O)N4CCCC4)c(=O)c23)cc1C shows pEC50 at minimum 4?
A) class 1

Q) hey, is pEC50 for this one >= 4? O=C(Cn1cnc2scc(-c3ccc(I)cc3)c2c1=O)N1CCCC1
A) class 1
